Cited source for all entries: patent US20210238260

- tested-target: Factor X (FX), P00742
- Sequence (P00742 whole entry, looked up): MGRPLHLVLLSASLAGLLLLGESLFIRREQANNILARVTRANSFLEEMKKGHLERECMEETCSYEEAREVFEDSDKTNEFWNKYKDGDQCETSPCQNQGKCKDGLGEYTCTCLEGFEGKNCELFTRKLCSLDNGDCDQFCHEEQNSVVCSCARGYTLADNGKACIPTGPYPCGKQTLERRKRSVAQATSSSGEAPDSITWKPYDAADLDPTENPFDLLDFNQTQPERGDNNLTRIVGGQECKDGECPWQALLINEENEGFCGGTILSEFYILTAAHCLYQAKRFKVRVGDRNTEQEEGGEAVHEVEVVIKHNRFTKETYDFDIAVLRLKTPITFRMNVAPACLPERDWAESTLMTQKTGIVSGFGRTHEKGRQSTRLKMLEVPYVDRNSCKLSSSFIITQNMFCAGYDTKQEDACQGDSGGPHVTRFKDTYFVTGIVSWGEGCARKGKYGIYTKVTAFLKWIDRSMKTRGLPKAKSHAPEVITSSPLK
measured-metric: kcat (s⁻¹)
Write the value in s⁻¹ as a bare number.

**Q:** Record request: kcat value, item FIXa variant Y155F/K228N/R318Y/R338E/R403E/E410N (protein) chain 1: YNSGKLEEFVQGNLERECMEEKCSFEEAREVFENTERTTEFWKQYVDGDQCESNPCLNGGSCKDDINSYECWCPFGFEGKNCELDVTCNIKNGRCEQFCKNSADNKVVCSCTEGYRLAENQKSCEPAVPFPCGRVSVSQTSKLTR chain 2: VVGGEDAKPGQFPWQVVLNGKVDAFCGGSIVNEKWIVTAAHCVETGVNITVVAGEHNIEETEHTEQKRNVIRIIPHHNYNAAINKYNHDIALLELDEPLVLNSYVTPICIADKEYTNIFLKFGSGYVSGWGRVFHKGYSALVLQYLRVPLVDRATCLESTKFTIYNNMFCAGFHEGGRDSCQGDSGGPHVTEVEGTSFLTGIISWGEECAMKGKYGIYTKVSEYVNWIKNKTKLT
**A:** 6.7

**Q:** Repeat with FIXa-K293E/R338E/R403E (protein) chain 1: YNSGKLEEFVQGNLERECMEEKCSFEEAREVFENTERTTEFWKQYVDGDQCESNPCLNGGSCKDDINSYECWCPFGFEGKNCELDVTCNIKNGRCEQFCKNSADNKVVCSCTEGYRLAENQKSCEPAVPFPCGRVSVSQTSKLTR chain 2: VVGGEDAKPGQFPWQVVLNGKVDAFCGGSIVNEKWIVTAAHCVETGVKITVVAGEHNIEETEHTEQKRNVIRIIPHHNYNAAINKYNHDIALLELDEPLVLNSYVTPICIADEEYTNIFLKFGSGYVSGWGRVFHKGRSALVLQYLRVPLVDRATCLESTKFTIYNNMFCAGFHEGGRDSCQGDSGGPHVTEVEGTSFLTGIISWGEECAMKGKYGIYTKVSEYVNWIKEKTKLT
**A:** 0.8
